Source listed as patent US20220315587A1.

Recorded measurements of IC50, one per entry
Molecular target: PDGFR-α (Homo sapiens, UniProt P16234)
Sequence (P16234 24-1089): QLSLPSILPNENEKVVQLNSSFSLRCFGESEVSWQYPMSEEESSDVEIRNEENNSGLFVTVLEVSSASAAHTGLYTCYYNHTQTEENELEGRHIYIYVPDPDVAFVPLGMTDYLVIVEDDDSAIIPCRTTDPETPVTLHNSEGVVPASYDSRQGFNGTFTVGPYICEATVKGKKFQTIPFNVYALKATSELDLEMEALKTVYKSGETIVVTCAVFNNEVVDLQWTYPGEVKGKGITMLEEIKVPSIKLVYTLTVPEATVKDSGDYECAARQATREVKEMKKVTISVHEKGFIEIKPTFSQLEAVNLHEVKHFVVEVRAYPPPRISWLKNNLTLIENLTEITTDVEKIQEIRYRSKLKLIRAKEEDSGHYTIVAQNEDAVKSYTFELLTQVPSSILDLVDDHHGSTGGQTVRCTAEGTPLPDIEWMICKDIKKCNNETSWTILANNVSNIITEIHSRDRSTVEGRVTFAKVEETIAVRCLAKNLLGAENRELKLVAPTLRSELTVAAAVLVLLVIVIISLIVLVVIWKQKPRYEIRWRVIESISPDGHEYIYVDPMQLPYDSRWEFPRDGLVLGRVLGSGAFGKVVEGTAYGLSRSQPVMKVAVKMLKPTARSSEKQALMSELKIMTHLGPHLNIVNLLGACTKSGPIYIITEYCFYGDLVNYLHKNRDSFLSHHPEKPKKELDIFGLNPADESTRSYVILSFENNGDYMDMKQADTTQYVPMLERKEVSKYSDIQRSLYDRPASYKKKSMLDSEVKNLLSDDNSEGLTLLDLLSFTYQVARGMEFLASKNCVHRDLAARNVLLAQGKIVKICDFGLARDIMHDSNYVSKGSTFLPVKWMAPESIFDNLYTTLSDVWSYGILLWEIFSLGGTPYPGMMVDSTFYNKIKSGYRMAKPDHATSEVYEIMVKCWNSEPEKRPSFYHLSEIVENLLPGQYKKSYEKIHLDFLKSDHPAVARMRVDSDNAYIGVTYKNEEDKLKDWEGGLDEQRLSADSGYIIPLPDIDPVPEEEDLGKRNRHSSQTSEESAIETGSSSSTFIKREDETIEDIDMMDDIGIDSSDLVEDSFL
Test: In vitro kinase assay ([γ-33P]-ATP)
Type: biochemical
Conditions: ATP at apparent ATP-Km of the kinase
ENDPOINT LABEL: IC50

O=C(Nc1ccc(-c2cnc3cnccn23)cc1)C1(C(=O)Nc2cc(C(F)(F)F)c(Cl)cn2)CC1 [Example 20] :: > 5000 nM
Cn1nc(NC(=O)C2(C(=O)Nc3ccc(-c4cnc5cnccn45)c(F)c3)CC2)cc1C(F)(F)F [Example 22] :: > 5000 nM
Cc1cnc(NC(=O)COc2ccc(-c3cnc4cnccn34)cn2)cc1C(F)(F)F [Example 3] :: < 500 nM
Cc1cnc(NC(=O)COc2ccc(-c3cnc4ccccn34)cn2)cc1C(F)(F)F [Example 8] :: < 500 nM
Cn1nc(NC(=O)C2(C(=O)Nc3ccc(-c4cnc5cnccn45)cc3)CC2)cc1C(F)(F)F [Example 21] :: > 5000 nM

====

Target: PDGFR-β (Homo sapiens, UniProt P09619)
Sequence (P09619 33-1106): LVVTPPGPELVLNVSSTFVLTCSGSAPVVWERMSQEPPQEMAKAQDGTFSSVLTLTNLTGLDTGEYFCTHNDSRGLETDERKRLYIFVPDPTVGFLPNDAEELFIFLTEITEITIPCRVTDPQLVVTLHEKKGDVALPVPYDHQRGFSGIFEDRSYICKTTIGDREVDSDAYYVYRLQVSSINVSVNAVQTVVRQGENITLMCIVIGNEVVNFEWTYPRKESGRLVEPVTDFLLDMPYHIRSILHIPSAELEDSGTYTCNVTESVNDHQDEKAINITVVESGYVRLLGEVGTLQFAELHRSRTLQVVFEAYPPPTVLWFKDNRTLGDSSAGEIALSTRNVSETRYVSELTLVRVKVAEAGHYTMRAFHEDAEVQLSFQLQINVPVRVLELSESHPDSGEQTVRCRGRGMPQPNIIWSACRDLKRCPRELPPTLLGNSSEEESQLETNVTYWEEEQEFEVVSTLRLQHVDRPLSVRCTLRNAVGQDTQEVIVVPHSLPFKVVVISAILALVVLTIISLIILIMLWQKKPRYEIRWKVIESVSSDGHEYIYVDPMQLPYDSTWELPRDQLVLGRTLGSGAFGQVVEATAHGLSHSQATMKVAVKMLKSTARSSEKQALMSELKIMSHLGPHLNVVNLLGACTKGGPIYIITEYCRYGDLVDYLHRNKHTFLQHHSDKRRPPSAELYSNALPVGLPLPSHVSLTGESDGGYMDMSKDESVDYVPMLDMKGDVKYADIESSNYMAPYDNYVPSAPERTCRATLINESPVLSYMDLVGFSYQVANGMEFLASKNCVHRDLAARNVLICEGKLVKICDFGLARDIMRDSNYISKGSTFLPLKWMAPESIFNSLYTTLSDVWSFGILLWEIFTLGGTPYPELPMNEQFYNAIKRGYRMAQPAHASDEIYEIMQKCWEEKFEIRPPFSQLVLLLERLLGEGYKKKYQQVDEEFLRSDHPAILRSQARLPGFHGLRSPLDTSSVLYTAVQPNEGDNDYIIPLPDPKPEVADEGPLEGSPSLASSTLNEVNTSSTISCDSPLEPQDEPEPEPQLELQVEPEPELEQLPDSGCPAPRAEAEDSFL
Assay: In vitro kinase assay ([γ-33P]-ATP)
Assay type: biochemical
Details: ATP at apparent ATP-Km of the kinase
Experimental: To determine the inhibitory activity of compounds, in vitro kinase assays were performed on respective enzymes purified from Sf9 insect cells or E. coli as recombinant GST-fusion proteins or His-tagged proteins.
Recorded measurements of IC50, one per entry
ENDPOINT LABEL: IC50

Cn1nc(NC(=O)C2(C(=O)Nc3ccc(-c4cnc5cnccn45)c(F)c3)CC2)cc1C(F)(F)F :: > 5000 nM
Cn1nc(NC(=O)C2(C(=O)Nc3ccc(-c4cnc5cnccn45)cc3)CC2)cc1C(F)(F)F :: > 5000 nM
Cc1cnc(NC(=O)COc2ccc(-c3cnc4cnccn34)cn2)cc1C(F)(F)F :: < 500 nM
O=C(Nc1ccc(-c2cnc3cnccn23)cc1)C1(C(=O)Nc2cc(C(F)(F)F)c(Cl)cn2)CC1 :: > 5000 nM
Cc1cnc(NC(=O)COc2ccc(-c3cnc4ccccn34)cn2)cc1C(F)(F)F :: < 500 nM

====

Molecular target: UniProtKB P35968
Sequence (P35968 20-1356): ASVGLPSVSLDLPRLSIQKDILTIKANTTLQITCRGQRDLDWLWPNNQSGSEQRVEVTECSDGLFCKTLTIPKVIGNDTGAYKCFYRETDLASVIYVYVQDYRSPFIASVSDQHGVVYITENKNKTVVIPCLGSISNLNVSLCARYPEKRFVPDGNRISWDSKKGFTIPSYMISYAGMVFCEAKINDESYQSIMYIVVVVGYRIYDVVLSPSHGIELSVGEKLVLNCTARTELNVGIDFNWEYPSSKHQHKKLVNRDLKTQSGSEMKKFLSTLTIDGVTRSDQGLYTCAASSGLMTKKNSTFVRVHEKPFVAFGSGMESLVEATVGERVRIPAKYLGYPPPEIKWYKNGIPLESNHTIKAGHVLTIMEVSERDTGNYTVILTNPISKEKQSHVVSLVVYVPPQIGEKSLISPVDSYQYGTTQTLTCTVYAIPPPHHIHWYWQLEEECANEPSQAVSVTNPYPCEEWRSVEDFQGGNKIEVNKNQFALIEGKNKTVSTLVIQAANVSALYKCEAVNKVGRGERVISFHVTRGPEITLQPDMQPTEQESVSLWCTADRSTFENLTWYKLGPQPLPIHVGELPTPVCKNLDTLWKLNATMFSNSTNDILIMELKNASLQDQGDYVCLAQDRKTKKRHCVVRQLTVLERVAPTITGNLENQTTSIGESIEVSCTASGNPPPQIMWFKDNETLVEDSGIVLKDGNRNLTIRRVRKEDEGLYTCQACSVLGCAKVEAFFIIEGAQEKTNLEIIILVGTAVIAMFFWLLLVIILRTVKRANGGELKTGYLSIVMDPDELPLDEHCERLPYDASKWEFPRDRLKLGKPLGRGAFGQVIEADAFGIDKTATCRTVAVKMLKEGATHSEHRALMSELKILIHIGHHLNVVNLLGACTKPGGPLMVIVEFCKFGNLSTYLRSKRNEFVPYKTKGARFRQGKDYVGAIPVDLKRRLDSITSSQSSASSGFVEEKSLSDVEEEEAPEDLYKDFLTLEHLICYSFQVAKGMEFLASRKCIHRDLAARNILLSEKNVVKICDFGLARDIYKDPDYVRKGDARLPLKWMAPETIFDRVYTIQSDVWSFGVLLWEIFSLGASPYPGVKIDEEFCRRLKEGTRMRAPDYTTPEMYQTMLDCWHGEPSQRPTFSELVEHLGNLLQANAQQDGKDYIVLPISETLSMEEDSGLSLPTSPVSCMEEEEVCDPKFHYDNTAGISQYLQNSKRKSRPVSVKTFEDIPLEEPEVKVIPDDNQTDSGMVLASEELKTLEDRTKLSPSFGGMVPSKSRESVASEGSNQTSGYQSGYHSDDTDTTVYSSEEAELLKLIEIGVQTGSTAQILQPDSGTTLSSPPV
Experiment: In vitro kinase assay ([γ-33P]-ATP)
Format: biochemical
Settings: ATP at apparent ATP-Km of the kinase
ENDPOINT LABEL: IC50

Cc1cnc(NC(=O)COc2ccc(-c3cnc4ccccn34)cn2)cc1C(F)(F)F [Example 8] :: < 500 nM
O=C(Nc1ccc(-c2cnc3cnccn23)cc1)C1(C(=O)Nc2cc(C(F)(F)F)c(Cl)cn2)CC1 [Example 20] :: > 5000 nM
Cc1cnc(NC(=O)COc2ccc(-c3cnc4cnccn34)cn2)cc1C(F)(F)F [Example 3] :: < 500 nM
Cn1nc(NC(=O)C2(C(=O)Nc3ccc(-c4cnc5cnccn45)c(F)c3)CC2)cc1C(F)(F)F [Example 22] :: 500 to 5000 nM
Cn1nc(NC(=O)C2(C(=O)Nc3ccc(-c4cnc5cnccn45)cc3)CC2)cc1C(F)(F)F [Example 21] :: > 5000 nM

====

Biological target: Flt3 (Homo sapiens, UniProt P36888)
Sequence (P36888 27-993): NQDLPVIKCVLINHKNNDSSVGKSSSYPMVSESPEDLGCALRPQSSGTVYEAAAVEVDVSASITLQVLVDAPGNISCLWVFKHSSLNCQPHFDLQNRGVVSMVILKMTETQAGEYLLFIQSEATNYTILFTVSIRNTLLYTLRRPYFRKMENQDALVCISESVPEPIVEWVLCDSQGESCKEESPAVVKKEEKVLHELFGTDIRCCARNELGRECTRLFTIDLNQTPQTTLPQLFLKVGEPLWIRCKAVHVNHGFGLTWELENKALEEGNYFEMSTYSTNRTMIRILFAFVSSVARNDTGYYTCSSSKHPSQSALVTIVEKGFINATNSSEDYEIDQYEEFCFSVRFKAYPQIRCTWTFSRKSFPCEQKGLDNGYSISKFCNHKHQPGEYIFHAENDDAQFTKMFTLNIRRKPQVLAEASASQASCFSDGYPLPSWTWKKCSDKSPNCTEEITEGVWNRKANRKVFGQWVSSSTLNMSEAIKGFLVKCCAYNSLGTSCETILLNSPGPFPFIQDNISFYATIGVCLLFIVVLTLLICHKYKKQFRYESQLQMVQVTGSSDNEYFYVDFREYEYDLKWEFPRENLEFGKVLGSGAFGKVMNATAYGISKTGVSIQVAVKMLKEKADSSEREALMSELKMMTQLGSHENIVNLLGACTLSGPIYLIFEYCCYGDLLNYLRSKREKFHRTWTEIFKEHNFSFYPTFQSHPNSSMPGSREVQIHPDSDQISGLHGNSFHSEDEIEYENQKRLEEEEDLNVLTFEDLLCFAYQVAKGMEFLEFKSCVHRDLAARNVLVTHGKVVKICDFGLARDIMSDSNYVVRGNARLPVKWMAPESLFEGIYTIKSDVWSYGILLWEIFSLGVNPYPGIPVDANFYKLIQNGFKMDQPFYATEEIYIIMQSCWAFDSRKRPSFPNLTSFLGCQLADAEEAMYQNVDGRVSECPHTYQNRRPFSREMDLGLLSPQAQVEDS
Experiment: In vitro kinase assay ([γ-33P]-ATP)
Type: biochemical
Settings: ATP at apparent ATP-Km of the kinase
Recorded measurements of IC50, one per entry
ENDPOINT LABEL: IC50

Cn1nc(NC(=O)C2(C(=O)Nc3ccc(-c4cnc5cnccn45)cc3)CC2)cc1C(F)(F)F :: > 5000 nM
Cn1nc(NC(=O)C2(C(=O)Nc3ccc(-c4cnc5cnccn45)c(F)c3)CC2)cc1C(F)(F)F :: > 5000 nM
Cc1ccc(NC(=O)COc2ccc(-c3cnc4ccccn34)cn2)cc1C(F)(F)F :: < 500 nM
Cc1cnc(NC(=O)COc2ccc(-c3cnc4ccccn34)cn2)cc1C(F)(F)F :: < 500 nM
O=C(Nc1ccc(-c2cnc3cnccn23)cc1)C1(C(=O)Nc2cc(C(F)(F)F)c(Cl)cn2)CC1 :: > 5000 nM
Cc1cnc(NC(=O)COc2ccc(-c3cnc4cnccn34)cn2)cc1C(F)(F)F :: < 500 nM
